System: MIA PaCa-2
protocol summary: Growth inhibition of human MIAPaCa2 cells after 48 hrs by SRB assay
Format: functional
condition context: MIA PaCa-2, 48 h
Quick rule for you: GI50 under 9 µM gets t, anything else gets f.

>>> class_label("CN1CCN(CCCc2ccc(C(c3ccccc3)C34CC5CC(CC(C5)C3)C4)cc2)CC1 (stereo not given)")
"f"
>>> class_label("Nc1ccn([C@@H]2O[C@H](CO)[C@@H](O)C2(F)F)c(=O)n1")
"f"
>>> class_label("CCN1CCN(Cc2ccc(C(c3ccccc3)C34CC5CC(CC(C5)C3)C4)cc2)CC1 (stereo not given)")
"t"
>>> class_label("CN1CCN(CCc2ccc(C(c3ccccc3)C34CC5CC(CC(C5)C3)C4)cc2)CC1 (stereo not given)")
"t"
>>> class_label("CCN1CCN(CCc2ccc(C(c3ccccc3)C34CC5CC(CC(C5)C3)C4)cc2)CC1 (stereo not given)")
"f"

----------
protocol summary: Growth inhibition of human MSC cells after 48 hrs by SRB assay
Assay type: cell-based
Measured TGI by item
quantity kind: TGI (µM)

>>> endpoint_value("c1ccc(C(c2ccc(CN3CCNCC3)cc2)C23CC4CC(CC(C4)C2)C3)cc1 (configuration not stated)")
3.14
>>> endpoint_value("CCN1CCN(CCCc2ccc(C(c3ccccc3)C34CC5CC(CC(C5)C3)C4)cc2)CC1 (configuration not stated)")
8.69
>>> endpoint_value("CN1CCN(CCc2ccc(C(c3ccccc3)C34CC5CC(CC(C5)C3)C4)cc2)CC1 (configuration not stated)")
6.39
>>> endpoint_value("CCN1CCN(Cc2ccc(C(c3ccccc3)C34CC5CC(CC(C5)C3)C4)cc2)CC1 (configuration not stated)")
4.61
>>> endpoint_value("O=c1[nH]cc(F)c(=O)[nH]1")
1
>>> endpoint_value("c1ccc(C(c2ccc(CCCN3CCNCC3)cc2)C23CC4CC(CC(C4)C2)C3)cc1 (configuration not stated)")
7.28
>>> endpoint_value("CN1CCN(CCCc2ccc(C(c3ccccc3)C34CC5CC(CC(C5)C3)C4)cc2)CC1 (configuration not stated)")
30.9
>>> endpoint_value("CN1CCN(Cc2ccc(C(c3ccccc3)C34CC5CC(CC(C5)C3)C4)cc2)CC1 (configuration not stated)")
4.44
>>> endpoint_value("c1ccc(C(c2ccc(CN3CCCCC3)cc2)C23CC4CC(CC(C4)C2)C3)cc1 (configuration not stated)")
20.1
>>> endpoint_value("c1ccc(C(c2ccc(CCN3CCCCC3)cc2)C23CC4CC(CC(C4)C2)C3)cc1 (configuration not stated)")
18.3
>>> endpoint_value("CCN1CCN(CCc2ccc(C(c3ccccc3)C34CC5CC(CC(C5)C3)C4)cc2)CC1 (configuration not stated)")
2.93
>>> endpoint_value("c1ccc(C(c2ccc(CCCN3CCCCC3)cc2)C23CC4CC(CC(C4)C2)C3)cc1 (configuration not stated)")
1.93

----------
protocol summary: Displacement of [3H]batrachotoxin benzoate from Na+ channel after 60 mins by liquid scintillation counting
As shown below, each of these compounds has a reported IC50 value.
quantity kind: IC50

>>> endpoint_value("c1ccc(CN2CCN(CCCc3ccc(C(c4ccccc4)C45CC6CC(CC(C6)C4)C5)cc3)CC2)cc1 (centres undefined)")
"11.5 nM"
>>> endpoint_value("c1ccc(C(c2ccc(CCCN3CCNCC3)cc2)C23CC4CC(CC(C4)C2)C3)cc1 (centres undefined)")
"> 1000 nM"
>>> endpoint_value("CN1CCN(CCCc2ccc(C(c3ccccc3)C34CC5CC(CC(C5)C3)C4)cc2)CC1 (centres undefined)")
"> 1000 nM"
>>> endpoint_value("c1ccc(C(c2ccc(CCCN3CCCCC3)cc2)C23CC4CC(CC(C4)C2)C3)cc1 (centres undefined)")
"> 100 nM"

----------
Tested on: U-251
protocol summary: Growth inhibition of human U251 cells after 48 hrs by SRB assay
Assay type: functional
condition context: U-251, 48 h
Measured log10 of TGI, listed per entry.
quantity kind: log10 of TGI (log10 of the value in µM)

>>> endpoint_value("c1ccc(C(c2ccc(CCCN3CCCCC3)cc2)C23CC4CC(CC(C4)C2)C3)cc1 (centres undefined)")
0.86
>>> endpoint_value("CCN1CCN(CCc2ccc(C(c3ccccc3)C34CC5CC(CC(C5)C3)C4)cc2)CC1 (centres undefined)")
0.79
>>> endpoint_value("CN1CCN(CCCc2ccc(C(c3ccccc3)C34CC5CC(CC(C5)C3)C4)cc2)CC1 (centres undefined)")
0.77
>>> endpoint_value("c1ccc(C(c2ccc(CN3CCCCC3)cc2)C23CC4CC(CC(C4)C2)C3)cc1 (centres undefined)")
1.60
>>> endpoint_value("CN1CCN(Cc2ccc(C(c3ccccc3)C34CC5CC(CC(C5)C3)C4)cc2)CC1 (centres undefined)")
0.82
>>> endpoint_value("O=c1[nH]cc(F)c(=O)[nH]1 [FLUOROURACIL]")
2.00
>>> endpoint_value("CN1CCN(CCc2ccc(C(c3ccccc3)C34CC5CC(CC(C5)C3)C4)cc2)CC1 (centres undefined)")
0.78
>>> endpoint_value("c1ccc(C(c2ccc(CCN3CCCCC3)cc2)C23CC4CC(CC(C4)C2)C3)cc1 (centres undefined)")
1.75
>>> endpoint_value("c1ccc(CN2CCN(CCCc3ccc(C(c4ccccc4)C45CC6CC(CC(C6)C4)C5)cc3)CC2)cc1 (centres undefined)")
1.90

----------
The entries below come with measured log10(CC50) values attached.
Tested on: MIA PaCa-2
protocol summary: Growth inhibition of human MIAPaCa2 cells after 48 hrs by SRB assay
Assay type: functional
condition context: MIA PaCa-2, 48 h, read-out: LC50 (the source's name)
quantity kind: log10(CC50) (log10 of the value in nM)

>>> endpoint_value("CN1CCN(CCCc2ccc(C(c3ccccc3)C34CC5CC(CC(C5)C3)C4)cc2)CC1 (centres undefined)")
1.86
>>> endpoint_value("O=c1[nH]cc(F)c(=O)[nH]1")
2.00
>>> endpoint_value("c1ccc(C(c2ccc(CN3CCCCC3)cc2)C23CC4CC(CC(C4)C2)C3)cc1 (centres undefined)")
1.91
>>> endpoint_value("Nc1ccn([C@@H]2O[C@H](CO)[C@@H](O)C2(F)F)c(=O)n1")
2.00
>>> endpoint_value("c1ccc(C(c2ccc(CCN3CCCCC3)cc2)C23CC4CC(CC(C4)C2)C3)cc1 (centres undefined)")
1.96
>>> endpoint_value("CCN1CCN(CCc2ccc(C(c3ccccc3)C34CC5CC(CC(C5)C3)C4)cc2)CC1 (centres undefined)")
1.89
>>> endpoint_value("CN1CCN(CCc2ccc(C(c3ccccc3)C34CC5CC(CC(C5)C3)C4)cc2)CC1 (centres undefined)")
1.88
>>> endpoint_value("CCN1CCN(Cc2ccc(C(c3ccccc3)C34CC5CC(CC(C5)C3)C4)cc2)CC1 (centres undefined)")
1.95
>>> endpoint_value("CN1CCN(Cc2ccc(C(c3ccccc3)C34CC5CC(CC(C5)C3)C4)cc2)CC1 (centres undefined)")
0.96

----------
Listed below: GI50 values for each entry.
System: MCF7
protocol summary: Growth inhibition of human MCF7 cells after 48 hrs by SRB assay
Format: functional
condition context: MCF7, 48 h
quantity kind: GI50

>>> endpoint_value("CN1CCN(CCCc2ccc(C(c3ccccc3)C34CC5CC(CC(C5)C3)C4)cc2)CC1 (stereo not drawn)")
"3.2 µM"
>>> endpoint_value("CCN1CCN(CCCc2ccc(C(c3ccccc3)C34CC5CC(CC(C5)C3)C4)cc2)CC1 (stereo not drawn)")
"3.05 µM"
>>> endpoint_value("O=c1[nH]cc(F)c(=O)[nH]1 [FLUOROURACIL]")
"14.5 µM"
>>> endpoint_value("c1ccc(C(c2ccc(CN3CCNCC3)cc2)C23CC4CC(CC(C4)C2)C3)cc1 (stereo not drawn)")
"2.45 µM"
>>> endpoint_value("CCN1CCN(Cc2ccc(C(c3ccccc3)C34CC5CC(CC(C5)C3)C4)cc2)CC1 (stereo not drawn)")
"2.26 µM"
>>> endpoint_value("CN1CCN(Cc2ccc(C(c3ccccc3)C34CC5CC(CC(C5)C3)C4)cc2)CC1 (stereo not drawn)")
"2.25 µM"
>>> endpoint_value("CN1CCN(CCc2ccc(C(c3ccccc3)C34CC5CC(CC(C5)C3)C4)cc2)CC1 (stereo not drawn)")
"2.77 µM"
>>> endpoint_value("CCN1CCN(CCc2ccc(C(c3ccccc3)C34CC5CC(CC(C5)C3)C4)cc2)CC1 (stereo not drawn)")
"3.9 µM"
>>> endpoint_value("c1ccc(C(c2ccc(CCN3CCCCC3)cc2)C23CC4CC(CC(C4)C2)C3)cc1 (stereo not drawn)")
"6.93 µM"
>>> endpoint_value("c1ccc(C(c2ccc(CCCN3CCNCC3)cc2)C23CC4CC(CC(C4)C2)C3)cc1 (stereo not drawn)")
"3.1 µM"
>>> endpoint_value("c1ccc(C(c2ccc(CN3CCCCC3)cc2)C23CC4CC(CC(C4)C2)C3)cc1 (stereo not drawn)")
"8.89 µM"
>>> endpoint_value("c1ccc(C(c2ccc(CCCN3CCCCC3)cc2)C23CC4CC(CC(C4)C2)C3)cc1 (stereo not drawn)")
"2.41 µM"
>>> endpoint_value("c1ccc(CN2CCN(CCCc3ccc(C(c4ccccc4)C45CC6CC(CC(C6)C4)C5)cc3)CC2)cc1 (stereo not drawn)")
"6.76 µM"
